# credit: patent US20220281886A1

# target-system: UniProt P16066
# Sequence (P16066 33-1061): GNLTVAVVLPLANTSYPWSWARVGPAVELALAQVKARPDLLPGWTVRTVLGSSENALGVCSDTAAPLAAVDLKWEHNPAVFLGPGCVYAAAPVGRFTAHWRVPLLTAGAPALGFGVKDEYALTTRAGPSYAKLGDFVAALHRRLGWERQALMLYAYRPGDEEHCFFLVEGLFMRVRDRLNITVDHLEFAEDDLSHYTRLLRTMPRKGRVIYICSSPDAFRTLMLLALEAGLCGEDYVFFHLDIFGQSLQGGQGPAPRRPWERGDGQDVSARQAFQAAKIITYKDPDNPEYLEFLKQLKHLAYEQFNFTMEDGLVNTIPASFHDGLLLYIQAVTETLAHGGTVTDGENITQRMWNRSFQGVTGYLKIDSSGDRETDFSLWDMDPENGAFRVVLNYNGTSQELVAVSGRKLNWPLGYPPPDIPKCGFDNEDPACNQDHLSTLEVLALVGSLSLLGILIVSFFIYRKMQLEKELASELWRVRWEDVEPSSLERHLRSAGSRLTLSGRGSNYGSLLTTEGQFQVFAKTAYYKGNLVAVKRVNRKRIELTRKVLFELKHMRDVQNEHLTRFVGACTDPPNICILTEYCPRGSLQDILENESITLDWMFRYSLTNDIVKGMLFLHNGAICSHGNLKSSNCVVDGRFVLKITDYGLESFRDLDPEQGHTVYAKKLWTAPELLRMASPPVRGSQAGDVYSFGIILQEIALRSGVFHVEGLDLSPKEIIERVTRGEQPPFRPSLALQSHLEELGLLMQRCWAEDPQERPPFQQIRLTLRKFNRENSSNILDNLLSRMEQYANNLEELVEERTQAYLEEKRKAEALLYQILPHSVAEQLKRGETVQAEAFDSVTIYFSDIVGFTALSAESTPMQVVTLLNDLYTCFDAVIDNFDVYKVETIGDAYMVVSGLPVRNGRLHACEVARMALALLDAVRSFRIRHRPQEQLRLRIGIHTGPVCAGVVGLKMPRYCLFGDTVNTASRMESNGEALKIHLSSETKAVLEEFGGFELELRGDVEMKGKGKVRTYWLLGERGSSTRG
# assay-method-text: NPRA Functional Cell Assay (cGMP HTRF)
# experimental-parameters: Human NPRA HEK JumpIn stable cells; cGMP by HTRF after 1 hour at 37° C.; 10-point dose response
Entries and their EC50
// return the numeric value with its unit appended

// known answers, use as guide
>  <compound>
CC(C)[C@]1(F)CCc2nc3c(F)cc(C(=O)N[C@H](CCN4CCC(O)CC4)c4ccc(NS(=O)(=O)N(C)C)nc4)cc3cc2C1

>  <result>
246 nM

$$$$
>  <compound>
CC(C)[C@]1(F)CCc2nc3c(F)cc(C(=O)N[C@H](CCN4CCC(CN5CCOCC5)CC4)c4ccc(-c5ccnnc5)nc4)cc3cc2C1 (racemic)

>  <result>
182 nM

$$$$
>  <compound>
CC(C)[C@]1(F)CCc2nc3c(F)cc(C(=O)N[C@H](CCN4CCCC4)c4ccc(-c5ccnnc5)nc4)cc3cc2C1 (racemic)

>  <result>
285 nM

$$$$
>  <compound>
CN1CC(NC(=O)c2cccc([C@@H](CCN3CCC[C@H]3CO)NC(=O)c3ccc4nc5c(cc4c3)C[C@@H](C3(C(F)(F)F)CC3)CC5)c2)C1

>  <result>
278 nM

$$$$
>  <compound>
CC(C)[C@]1(F)CCc2nc3c(F)cc(C(=O)N[C@H](CCN4CCC(O)CC4)c4ccc(N5CC(=O)NC5=O)nc4)cc3cc2C1

>  <result>
321 nM

$$$$

Q: Please look up its EC50: CC(C)[C@]1(F)CCc2nc3c(F)cc(C(=O)N[C@H](CCN4CCC(C(F)(F)F)CC4)c4ccc(-c5ccnnc5)nc4)cc3cc2C1 (racemic)
A: 1060 nM
